The reported measurements were obtained from PubChem BioAssay.

Assay remarks: small molecules captured by biotinylated probe aFSTL3 – biochemical, small-molecule microarray, fluorescence 635/667, stem cell growth factor project, primary screen (AID 1064);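 note: measures binding of the biotinylated anti-FSTL3 antibody to printed compounds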
Condition description: higher = more signal
Decide using composite z-score: a value greater than or equal to -0.006 is label 1, a smaller one is label 0.

OCCCc1cc[n+](Cc2cccc(OC(F)(F)F)c2)cc1 ... label 1
O=C(NCCN1CCOCC1)[C@@H]1c2ccccc2C(=O)N(Cc2cc(F)cc(C(F)(F)F)c2)[C@H]1c1ccc(CO)cc1 ... label 1
COc1ccc([Si](C)(C)[C@@H]2[C@@H](CCO)O[C@]3(C(=O)N(Cc4ccccc4)c4ccc(N(C=O)c5ccccc5)cc43)[C@H]2C)cc1 ... label 0
CC(C)N1C(=O)c2ccccc2[C@](C)(C(=O)NC2CC2)[C@@H]1c1ccc(CO)cc1 ... label 0
CC(C)NC(=O)[C@@H]1c2ccccc2C(=O)N(C2CCCCC2)[C@H]1c1ccc(CO)cc1 ... label 1
C=CCNC(=O)[C@@H]1[C@H]2C(=O)O[C@H](c3ccccc3)[C@H](c3ccccc3)N2[C@H](c2ccccc2OCCO)[C@@]12C(=O)N(C(=O)OCCOC)c1ccc(C#CCC(C(=O)OC)C(=O)OC)cc12 ... label 1
C=C[C@@H](C)[C@@H](OC(=O)Nc1ccc(OC)cc1)c1ccc(O)c2ccccc12 ... label 0
C=C(/C(=C/C[C@@H](OC(=O)c1ccncc1)c1ccc(CO)o1)c1cc(C(=O)OC)ccc1OC)C(C)C ... label 0
